# MEASUREMENT PROTOCOL: NCI Yeast Anticancer Drug Screen. Data for the mec2-1 strain (AID 157)
# CONDITION DETAILS: S. cerevisiae mec2-1 strain, at 50.0 µM, hits give high values
# Experimental: Growth inhibition of yeast strains with defined genetic alterations is measured as a screen for potential anti-cancer activity. Selected strains with alterations in DNA damage repair or cell cycle control were exposed to compounds and growth inhibition was measured relative to vehicle treated controls. The strain used in this assay is mec2-1
Compounds without any hit were thinned out: in the full panel of roughly 79,000, 15% have a hit.
METRIC: growth inhibition (%)
Numeric only. Scale: %

Which growth inhibition is reported for this molecule? "N#CCCC(=O)c1ccccc1"
-19.1

Similarly, "CCCCCCCCCCCCCCCCCC(CCCCCCCC)CCCCCCCC" ?
0.65

Similarly, "COc1ccc(/C=N/NC(=O)/C(C#N)=C/c2ccc(OC)cc2)cc1" ?
19.1

Similarly, "NCCCc1c(-c2ccccc2)nc(N)[nH]c1=O" ?
-15

Similarly, "CC1(C)OC[C@@H](O)[C@H](Br)CO1" ?
-36

Similarly, CC1CCCCC12OCCO2 (configuration not stated) ?
-31.4

Similarly, C=CCOC(=O)C(C)OC(=O)OCC (configuration not stated) ?
10.7
